Cited source for all entries: the kinase profiling compilation of Christmann-Franck et al. (2016)

molecular target: PIK3CA (human) (UniProt P42336); test: KINOMEscan competition binding; details: compound 10.0 µM
Sequence (P42336 whole entry, looked up): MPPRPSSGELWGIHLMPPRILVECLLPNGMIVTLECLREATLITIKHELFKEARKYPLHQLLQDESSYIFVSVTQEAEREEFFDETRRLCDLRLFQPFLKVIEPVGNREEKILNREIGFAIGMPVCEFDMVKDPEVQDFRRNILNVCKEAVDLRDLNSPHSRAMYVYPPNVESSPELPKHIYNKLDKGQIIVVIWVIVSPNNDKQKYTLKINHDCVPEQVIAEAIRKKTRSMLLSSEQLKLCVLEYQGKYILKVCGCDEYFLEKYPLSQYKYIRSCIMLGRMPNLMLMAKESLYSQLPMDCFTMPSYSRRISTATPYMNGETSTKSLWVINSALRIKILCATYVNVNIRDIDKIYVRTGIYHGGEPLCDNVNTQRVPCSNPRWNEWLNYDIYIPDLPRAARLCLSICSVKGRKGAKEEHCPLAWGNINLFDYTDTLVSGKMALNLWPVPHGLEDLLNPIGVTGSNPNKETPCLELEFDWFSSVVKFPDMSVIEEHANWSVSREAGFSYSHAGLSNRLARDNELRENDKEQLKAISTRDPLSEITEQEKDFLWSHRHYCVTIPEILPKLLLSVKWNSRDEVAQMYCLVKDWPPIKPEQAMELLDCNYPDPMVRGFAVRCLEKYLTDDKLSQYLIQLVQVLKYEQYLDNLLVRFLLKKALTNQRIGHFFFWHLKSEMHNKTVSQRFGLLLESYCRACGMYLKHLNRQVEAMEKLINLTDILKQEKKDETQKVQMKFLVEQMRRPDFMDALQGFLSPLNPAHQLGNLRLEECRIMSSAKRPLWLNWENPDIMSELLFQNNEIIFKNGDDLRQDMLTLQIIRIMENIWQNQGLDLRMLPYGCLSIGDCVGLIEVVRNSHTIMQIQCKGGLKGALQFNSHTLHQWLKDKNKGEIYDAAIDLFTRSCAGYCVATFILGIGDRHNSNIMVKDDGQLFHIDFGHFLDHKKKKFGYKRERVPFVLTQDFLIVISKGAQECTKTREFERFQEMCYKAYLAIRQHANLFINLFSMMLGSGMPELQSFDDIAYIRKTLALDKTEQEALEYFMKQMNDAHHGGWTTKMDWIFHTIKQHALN
Attribute: kinase still bound, per cent of control
Quantity: kinase still bound, per cent of control (%)

• COc1cc(N2CCN(C)CC2)ccc1Nc1ncc2c(n1)Nc1ccccc1NC2=O = 100
• CN1C(=O)c2ccccc2N(C)c2nc(NS(=O)(=O)c3ccc(N)cc3)ncc21 = 100
• COc1cc(N2CCN(C)CC2)ccc1Nc1ncc2c(n1)N(C)c1sccc1C(=O)N2C = 97
• COc1cc(N2CCC(O)CC2)ccc1Nc1ncc2c(n1)N1CCc3cccc(c31)C(=O)N2C = 84
• COc1cc(N2CCN(C)CC2)ccc1Nc1ncc2c(n1)N(C)c1ccccc1N(C)C2=O = 100
• CS(=O)C1=NC(=O)/C(=C/c2ccc(-c3ccc(S(N)(=O)=O)cc3)o2)S1 (configuration not stated) = 12
• CN1C(=O)c2ccccc2N(C)c2nc(Nc3ccc(N4CCC(O)CC4)cn3)ncc21 = 33

====

target: PHKG1 (human); assay: KINOMEscan competition binding; settings: compound 10.0 µM
Attribute: kinase still bound, per cent of control
Quantity: kinase still bound, per cent of control (%)

• N=C1NC(=O)/C(=C/c2ccc(-c3cncc4ccccc34)o2)S1 = 23
• CN1CCN(c2ccc(C(=O)Nc3ncc4c(n3)N(C)c3ccccc3C(=O)N4C)cc2)CC1 = 98
• COc1cc(N2CCN(C)CC2)ccc1Nc1ncc2c(n1)Nc1ccccc1NC2=O = 46
• O=C1NC(=O)/C(=C/c2c[nH]c(=O)c(-c3ccc(N4CCNCC4)nc3)c2)S1 = 29
• COc1cc(N2CCN(C)CC2)ccc1Nc1ncc2c(n1)N(C)c1ccccc1N(C)C2=O = 54
• COc1cc(N2CCN(C)CC2)ccc1Nc1ncc2c(n1)N(C(C)C)c1ccccc1C(=O)N2 = 9.2
• CN1C(=O)c2ccccc2N(C)c2nc(Nc3ccc(N4CCC(O)CC4)cc3)ncc21 = 95
• CN1C(=O)c2ccccc2N(C)c2nc(NS(=O)(=O)c3ccc(N)cc3)ncc21 = 100
• COc1cc(N2CCC(O)CC2)ccc1Nc1ncc2c(n1)N1CCc3cccc(c31)C(=O)N2C = 89
• COc1cc(N2CCN(C)CC2)ccc1Nc1ncc2c(n1)N(C)c1sccc1C(=O)N2C = 69
• CCN1CCN(Cc2cc(NC(=O)c3cccc4cc(-c5ccc(/C=C6\SC(=O)NC6=O)o5)ccc34)cc(C(F)(F)F)c2)CC1 = 0

====

molecular target: UniProt:P11362; assay: KINOMEscan competition binding; conditions: compound 10.0 µM
Sequence (P11362 whole entry, looked up): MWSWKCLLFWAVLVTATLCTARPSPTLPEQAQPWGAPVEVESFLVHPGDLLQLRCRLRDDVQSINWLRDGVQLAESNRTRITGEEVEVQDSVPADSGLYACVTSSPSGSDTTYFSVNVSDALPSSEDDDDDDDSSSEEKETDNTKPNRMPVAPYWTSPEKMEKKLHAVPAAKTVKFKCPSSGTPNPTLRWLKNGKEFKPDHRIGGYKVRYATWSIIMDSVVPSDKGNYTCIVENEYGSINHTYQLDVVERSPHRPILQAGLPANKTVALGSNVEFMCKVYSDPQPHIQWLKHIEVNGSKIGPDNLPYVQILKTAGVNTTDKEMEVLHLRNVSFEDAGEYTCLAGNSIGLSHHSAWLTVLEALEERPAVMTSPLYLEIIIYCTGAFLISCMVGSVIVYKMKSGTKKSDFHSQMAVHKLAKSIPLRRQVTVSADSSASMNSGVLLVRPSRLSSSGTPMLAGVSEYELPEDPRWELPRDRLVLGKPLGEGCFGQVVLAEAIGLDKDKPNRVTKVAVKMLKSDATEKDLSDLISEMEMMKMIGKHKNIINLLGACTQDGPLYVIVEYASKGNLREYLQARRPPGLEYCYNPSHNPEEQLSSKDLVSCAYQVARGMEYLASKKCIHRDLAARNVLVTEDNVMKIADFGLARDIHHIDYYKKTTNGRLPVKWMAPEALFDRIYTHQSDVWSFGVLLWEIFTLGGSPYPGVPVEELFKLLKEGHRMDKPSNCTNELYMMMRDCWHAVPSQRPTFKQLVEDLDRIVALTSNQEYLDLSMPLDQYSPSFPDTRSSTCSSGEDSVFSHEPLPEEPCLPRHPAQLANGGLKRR
Quantity: kinase still bound, per cent of control (%)

• CN1C(=O)c2ccccc2N(C)c2nc(Nc3ccc(N4CCC(O)CC4)cc3)ncc21 = 61
• COc1cc(N2CCC(O)CC2)ccc1Nc1ncc2c(n1)N1CCc3cccc(c31)C(=O)N2C = 95
• CN1C(=O)c2ccccc2N(C)c2nc(NS(=O)(=O)c3ccc(N)cc3)ncc21 = 100
• COc1cc(N2CCN(C)CC2)ccc1Nc1ncc2c(n1)N(C)c1sccc1C(=O)N2C = 100
• COc1cc(N2CCN(C)CC2)ccc1Nc1ncc2c(n1)Nc1ccccc1NC2=O = 80
• COc1cc(N2CCN(C)CC2)ccc1Nc1ncc2c(n1)N(C)c1ccccc1N(C)C2=O = 100
• O=C1NC(=O)/C(=C/c2c[nH]c(=O)c(-c3ccc(N4CCNCC4)nc3)c2)S1 = 100
• CN1CCN(c2ccc(C(=O)Nc3ncc4c(n3)N(C)c3ccccc3C(=O)N4C)cc2)CC1 = 100

====

target: BMX (human) (UniProt P51813); assay: KINOMEscan competition binding; details: compound 10.0 µM
Sequence (P51813 whole entry, looked up): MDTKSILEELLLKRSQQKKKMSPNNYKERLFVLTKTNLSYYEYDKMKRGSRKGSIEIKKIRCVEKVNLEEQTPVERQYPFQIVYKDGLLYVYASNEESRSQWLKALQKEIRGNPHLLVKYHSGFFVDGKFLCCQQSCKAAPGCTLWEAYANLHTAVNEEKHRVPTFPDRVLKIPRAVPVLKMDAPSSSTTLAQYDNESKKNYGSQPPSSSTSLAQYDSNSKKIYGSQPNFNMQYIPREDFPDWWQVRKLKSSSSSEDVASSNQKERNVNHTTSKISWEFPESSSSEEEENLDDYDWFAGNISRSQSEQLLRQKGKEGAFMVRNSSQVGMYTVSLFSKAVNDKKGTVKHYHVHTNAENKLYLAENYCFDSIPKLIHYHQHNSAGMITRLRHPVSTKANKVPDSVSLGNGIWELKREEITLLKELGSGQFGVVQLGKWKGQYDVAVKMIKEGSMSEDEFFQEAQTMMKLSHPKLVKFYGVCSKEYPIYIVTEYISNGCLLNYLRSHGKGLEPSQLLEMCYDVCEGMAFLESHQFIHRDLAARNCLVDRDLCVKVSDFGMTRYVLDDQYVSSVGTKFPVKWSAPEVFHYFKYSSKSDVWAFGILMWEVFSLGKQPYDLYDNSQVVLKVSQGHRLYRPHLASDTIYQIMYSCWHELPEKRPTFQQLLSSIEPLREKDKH
Quantity: kinase still bound, per cent of control (%)

- COc1cc(N2CCN(C)CC2)ccc1Nc1ncc2c(n1)Nc1ccccc1NC2=O: 99
- COc1cc(N2CCN(C)CC2)ccc1Nc1ncc2c(n1)N(C)c1sccc1C(=O)N2C: 100
- CN1C(=O)c2ccccc2N(C)c2nc(Nc3ccc(N4CCC(O)CC4)cc3)ncc21: 89
- CN1C(=O)c2ccccc2N(C)c2nc(NS(=O)(=O)c3ccc(N)cc3)ncc21: 100
- O=C1NC(=O)/C(=C/c2c[nH]c(=O)c(-c3ccc(N4CCNCC4)nc3)c2)S1: 94
- CN1CCN(c2ccc(C(=O)Nc3ncc4c(n3)N(C)c3ccccc3C(=O)N4C)cc2)CC1: 100
- COc1cc(N2CCC(O)CC2)ccc1Nc1ncc2c(n1)N1CCc3cccc(c31)C(=O)N2C: 93
- COc1cc(N2CCN(C)CC2)ccc1Nc1ncc2c(n1)N(C)c1ccccc1N(C)C2=O: 96

====

molecular target: UniProtKB P11309; experiment: KINOMEscan competition binding; conditions: compound 10.0 µM
Sequence (P11309 whole entry, looked up): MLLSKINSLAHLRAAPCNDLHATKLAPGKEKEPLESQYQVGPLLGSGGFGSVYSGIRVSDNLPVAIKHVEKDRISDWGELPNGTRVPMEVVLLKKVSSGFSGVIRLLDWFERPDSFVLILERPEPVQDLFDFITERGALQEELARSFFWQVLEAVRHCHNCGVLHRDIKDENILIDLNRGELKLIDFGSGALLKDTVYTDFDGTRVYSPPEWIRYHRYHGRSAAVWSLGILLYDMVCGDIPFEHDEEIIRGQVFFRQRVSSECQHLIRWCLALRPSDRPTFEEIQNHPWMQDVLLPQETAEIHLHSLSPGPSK
Attribute: kinase still bound, per cent of control
Quantity: kinase still bound, per cent of control

- CS(=O)C1=NC(=O)/C(=C/c2ccc(-c3ccc(S(N)(=O)=O)cc3)o2)S1 (centres undefined): 2.4%
- COc1cc(N2CCN(C)CC2)ccc1Nc1ncc2c(n1)Nc1ccccc1NC2=O: 46%
- COc1cc(N2CCC(O)CC2)ccc1Nc1ncc2c(n1)N1CCc3cccc(c31)C(=O)N2C: 91%
- COc1cc(N2CCN(C)CC2)ccc1Nc1ncc2c(n1)N(C)c1ccccc1N(C)C2=O: 91%
- N=C1NC(=O)/C(=C/c2ccc(-c3csc4ccccc34)o2)S1: 8.1%
- CSC1=NC(=O)/C(=C/c2c[nH]c(=O)c(-c3ccc(NS(C)(=O)=O)cc3)c2)S1: 13%
- CS(=O)(=O)Nc1ccc(-c2ncc(/C=C3\SC(=N)NC3=O)s2)cc1: 2.8%
- CS(=O)(=O)Nc1ccc(-c2ccc(/C=C3\SC(=N)NC3=O)o2)c(O)c1: 3.3%
- N=C1NC(=O)/C(=C/c2ccc(-c3ccc4c(C(=O)Nc5ccc(N6CCNCC6)cc5)cccc4c3)o2)S1: 6.4%

====

molecular target: BRSK1 (human); test: KINOMEscan competition binding; details: compound 10.0 µM
Decision: kinase still bound, per cent of control beneath 80% gives fulfilled; kinase still bound, per cent of control meeting or exceeding 80% gives not fulfilled.

- N=C1NC(=O)/C(=C/c2ccc(-c3cncc4ccccc34)o2)S1: fulfilled
- O=C1NC(=S)S/C1=C\c1ccc(-c2cncc3ccccc23)o1: fulfilled
- CN1C(=O)c2ccccc2N(C)c2nc(Nc3ccc(N4CCC(O)CC4)cc3)ncc21: fulfilled
- CN1CCN(c2ccc(C(=O)Nc3ncc4c(n3)N(C)c3ccccc3C(=O)N4C)cc2)CC1: not fulfilled
- COc1cc(N2CCN(C)CC2)ccc1Nc1ncc2c(n1)N(C)c1ccccc1N(C)C2=O: not fulfilled
- CN1C(=O)c2ccccc2N(C)c2nc(NS(=O)(=O)c3ccc(N)cc3)ncc21: not fulfilled
- COc1cc(N2CCC(O)CC2)ccc1Nc1ncc2c(n1)N1CCc3cccc(c31)C(=O)N2C: not fulfilled
- COc1cc(N2CCN(C)CC2)ccc1Nc1ncc2c(n1)Nc1ccccc1NC2=O: not fulfilled
- O=C1NC(=O)/C(=C/c2c[nH]c(=O)c(-c3ccc(N4CCNCC4)nc3)c2)S1: not fulfilled

====

Attribute: kinase still bound, per cent of control
tested on: ABL1 (human), P00519 [Y253F]; assay: KINOMEscan competition binding; conditions: compound 10.0 µM
Quantity: kinase still bound, per cent of control (%)

* CN1C(=O)c2ccccc2N(C)c2nc(NS(=O)(=O)c3ccc(N)cc3)ncc21 | 100
* CN1CCN(c2ccc(C(=O)Nc3ncc4c(n3)N(C)c3ccccc3C(=O)N4C)cc2)CC1 | 100
* CN1C(=O)c2ccccc2N(C)c2nc(Nc3ccc(N4CCC(O)CC4)cc3)ncc21 | 1.9
* O=C1NC(=O)/C(=C/c2c[nH]c(=O)c(-c3ccc(N4CCNCC4)nc3)c2)S1 | 95
* COc1cc(N2CCN(C)CC2)ccc1Nc1ncc2c(n1)Nc1ccccc1NC2=O | 26
* COc1cc(N2CCC(O)CC2)ccc1Nc1ncc2c(n1)N1CCc3cccc(c31)C(=O)N2C | 100
* COc1cc(N2CCN(C)CC2)ccc1Nc1ncc2c(n1)N(C)c1ccccc1N(C)C2=O | 100
* COc1cc(N2CCN(C)CC2)ccc1Nc1ncc2c(n1)N(C)c1sccc1C(=O)N2C | 99

====

molecular target: TTK (human) (UniProt P33981); assay: KINOMEscan competition binding; conditions: compound 10.0 µM
Sequence (P33981 whole entry, looked up): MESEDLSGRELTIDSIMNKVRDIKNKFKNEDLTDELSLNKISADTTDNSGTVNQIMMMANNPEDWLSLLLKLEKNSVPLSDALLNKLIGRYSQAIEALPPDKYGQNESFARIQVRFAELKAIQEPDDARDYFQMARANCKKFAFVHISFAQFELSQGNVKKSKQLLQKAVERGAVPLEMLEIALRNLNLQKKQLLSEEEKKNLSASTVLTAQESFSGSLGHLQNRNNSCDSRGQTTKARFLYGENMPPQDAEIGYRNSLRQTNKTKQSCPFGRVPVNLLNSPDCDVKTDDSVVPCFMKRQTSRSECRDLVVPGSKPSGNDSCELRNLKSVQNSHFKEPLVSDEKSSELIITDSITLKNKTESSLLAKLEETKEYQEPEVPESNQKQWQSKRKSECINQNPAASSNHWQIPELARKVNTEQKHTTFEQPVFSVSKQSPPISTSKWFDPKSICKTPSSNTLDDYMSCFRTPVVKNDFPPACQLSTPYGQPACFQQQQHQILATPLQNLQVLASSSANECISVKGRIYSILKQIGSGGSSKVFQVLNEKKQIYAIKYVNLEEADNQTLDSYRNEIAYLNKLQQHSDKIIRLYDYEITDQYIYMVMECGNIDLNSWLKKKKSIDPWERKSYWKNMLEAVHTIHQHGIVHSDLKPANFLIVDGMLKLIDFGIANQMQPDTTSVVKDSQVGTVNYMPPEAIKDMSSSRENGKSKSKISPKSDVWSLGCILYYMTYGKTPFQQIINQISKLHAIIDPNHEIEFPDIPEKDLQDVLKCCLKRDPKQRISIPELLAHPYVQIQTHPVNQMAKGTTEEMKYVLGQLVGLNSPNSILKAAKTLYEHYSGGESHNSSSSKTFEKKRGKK
Quantity: kinase still bound, per cent of control

- CN(C)C1=NC(=O)/C(=C/c2ccc(-c3ccc(S(N)(=O)=O)cc3)o2)S1: 9%
- COc1cc(N2CCN(C)CC2)ccc1Nc1ncc2c(n1)N(C(C)C)c1ccccc1C(=O)N2: 1%
- N=C1NC(=O)/C(=C/c2ccc(-c3ccc(S(N)(=O)=O)cc3)o2)S1: 24%
- O=C1NC(=S)S/C1=C\c1ccc(-c2cncc3ccccc23)o1: 17%
- COc1cc(N2CCC(C(N)=O)CC2)ccc1Nc1ncc2c(n1)N(C1CCCC1)[C@@H]1CCC[C@@H]1C(=O)N2C: 10%
